- Test system: Key Broadleaf Weed and Crop Species
- Measurement Description: Post-emergent Test II herbicidal activity (Table 5)
- Type: in vivo
- Run Conditions: post-emergence, 336 h; VIOTR: wild pansy (Viola tricolor); application rate 140 g ai/ha; 14 days after application; read-out: Visual Growth Reduction (%) 14 Days After Application, VIOTR
Property: pest or weed control at 140 g/ha

Past entries and their recorded results:
> print(dat)
                                item.smiles  result.value
1  Nc1c(F)c(-c2ccc([N+](=O)[O-])cc2)nc(C(=O)O)c1Cl      0 to 29%
2   Nc1c(F)c(-c2ccc(I)c(F)c2)nc(C(=O)O)c1Cl    95 to 100%
3  C=Cc1c(C(=O)O)nc(-c2ccc(Cl)c(F)c2)c(F)c1N     75 to 84%
4  C#Cc1ccc(-c2nc(N)c(OC)c(C(=O)O)n2)c(F)c1      0 to 29%
5  COC(=O)c1nc(-c2ccc(F)c(F)c2F)c(F)c(N)c1Cl    95 to 100%

Entry COC(=O)c1nc(-c2ccc(Cl)c(F)c2)c(F)c(N)c1Cl , pest or weed control at 140 g/ha reported as 95 to 100%

Entry COC(=O)c1nc(-c2ccc(OC(F)F)c(F)c2)c(F)c(N)c1Cl , pest or weed control at 140 g/ha reported as 0 to 29%

Entry Nc1cc(-c2ccc(Br)cc2)nc(C(=O)O)c1Cl , pest or weed control at 140 g/ha reported as 30 to 44%

Entry COC(=O)c1nc(-c2ccccc2F)c(F)c(N)c1Cl , pest or weed control at 140 g/ha reported as 60 to 74%
